# ASSAYED TARGET: KDM5A (Homo sapiens (Human), UniProt P29375)
# Sequence (P29375 whole entry): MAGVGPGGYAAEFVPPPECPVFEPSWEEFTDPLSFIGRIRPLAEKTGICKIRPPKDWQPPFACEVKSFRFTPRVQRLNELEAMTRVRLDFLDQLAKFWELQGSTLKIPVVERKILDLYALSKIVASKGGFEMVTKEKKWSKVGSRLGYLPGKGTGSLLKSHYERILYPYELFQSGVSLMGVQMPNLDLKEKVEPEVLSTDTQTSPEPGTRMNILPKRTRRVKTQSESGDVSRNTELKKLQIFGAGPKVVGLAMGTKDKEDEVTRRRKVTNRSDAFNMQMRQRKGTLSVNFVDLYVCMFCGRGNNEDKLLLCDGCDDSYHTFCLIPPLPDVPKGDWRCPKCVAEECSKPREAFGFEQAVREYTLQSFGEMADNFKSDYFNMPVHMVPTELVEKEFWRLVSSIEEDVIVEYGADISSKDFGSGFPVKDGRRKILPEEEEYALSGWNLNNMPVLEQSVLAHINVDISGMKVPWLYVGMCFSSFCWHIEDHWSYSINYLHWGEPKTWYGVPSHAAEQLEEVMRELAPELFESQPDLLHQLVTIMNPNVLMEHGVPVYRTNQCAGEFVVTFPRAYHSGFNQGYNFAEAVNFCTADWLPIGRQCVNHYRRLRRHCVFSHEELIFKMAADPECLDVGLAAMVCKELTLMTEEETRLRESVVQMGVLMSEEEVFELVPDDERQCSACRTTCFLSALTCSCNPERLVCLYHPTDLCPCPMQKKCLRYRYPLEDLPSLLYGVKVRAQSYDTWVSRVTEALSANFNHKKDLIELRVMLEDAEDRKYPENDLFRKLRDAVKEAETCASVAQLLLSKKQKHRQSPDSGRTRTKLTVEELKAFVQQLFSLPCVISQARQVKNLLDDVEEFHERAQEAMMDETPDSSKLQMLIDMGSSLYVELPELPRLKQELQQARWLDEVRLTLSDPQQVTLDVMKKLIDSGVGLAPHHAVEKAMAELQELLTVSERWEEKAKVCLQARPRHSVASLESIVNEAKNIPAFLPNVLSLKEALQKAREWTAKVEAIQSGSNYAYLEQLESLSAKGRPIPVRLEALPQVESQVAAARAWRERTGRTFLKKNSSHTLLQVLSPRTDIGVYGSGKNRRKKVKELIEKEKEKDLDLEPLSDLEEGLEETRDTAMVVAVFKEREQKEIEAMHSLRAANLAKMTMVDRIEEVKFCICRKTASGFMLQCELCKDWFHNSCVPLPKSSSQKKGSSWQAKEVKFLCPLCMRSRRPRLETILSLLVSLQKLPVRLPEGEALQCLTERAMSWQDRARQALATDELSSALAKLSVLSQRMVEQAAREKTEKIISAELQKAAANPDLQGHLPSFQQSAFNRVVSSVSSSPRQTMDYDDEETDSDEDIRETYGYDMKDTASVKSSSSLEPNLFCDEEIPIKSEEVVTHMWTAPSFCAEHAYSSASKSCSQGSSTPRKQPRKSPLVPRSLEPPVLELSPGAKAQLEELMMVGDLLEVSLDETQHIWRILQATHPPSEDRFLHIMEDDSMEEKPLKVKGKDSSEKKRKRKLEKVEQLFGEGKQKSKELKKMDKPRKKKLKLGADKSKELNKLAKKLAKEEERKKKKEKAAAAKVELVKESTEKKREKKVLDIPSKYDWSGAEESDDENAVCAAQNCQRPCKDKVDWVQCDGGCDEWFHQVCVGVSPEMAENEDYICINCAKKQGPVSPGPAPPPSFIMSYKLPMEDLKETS
# ASSAY REMARKS: Biochemical KDM5A Inhibition Assay (HTRF)
# TEST PARAMETERS: KDM5A protein, biotin-labelled H3K4-Me3 substrate
METRIC NAME: IC50 (nM)
The reply should contain only the number, in nM.

Some compounds with recorded IC50:
CC(C)n1cnc(C(=O)N2C[C@@H]3[C@H](C2)[C@H]3C(=O)c2cccs2)c1	60
CC(C)n1cnc(C(=O)N2C[C@@H]3[C@H](C2)[C@H]3C(=O)N(C)C(C)(C)C)c1	30
Cc1csc(C(=O)[C@H]2[C@@H]3CN(C(=O)c4cn(C(C)C)cn4)C[C@@H]32)c1	20

Okay, now this compound:
// query I have this compound here, Cc1nnc([C@H]2[C@@H]3CN(C(=O)c4cc(C(C)C)[nH]n4)C[C@@H]32)o1 , and I need its recorded IC50.
// result 300

----------
# ASSAY REMARKS: Metabolic Stability in Human Liver Microsomes
# Type: in vitro ADME
# TEST PARAMETERS: human, microsomes, 1 h, 1 μM, pH 7.4
METRIC NAME: Metabolic stability in human liver microsomes (% remaining at 60 min)

Some compounds with recorded Metabolic stability in human liver microsomes (% remaining at 60 min):
CC(C)n1cnc(C(=O)N2C[C@@H]3[C@H](C2)[C@@]3(C)C2=NOC(C)(C)C2)c1	100%
CC[C@H](C)n1cnc(C(=O)N2C[C@@H]3[C@H](C2)[C@H]3C2=NOC(C)(C)C2)c1	100%
CC1(C)CC([C@@]2(C)[C@@H]3CN(C(=O)c4cn(C5CC5)cn4)C[C@@H]32)=NO1	104%
CC(C)n1cnc(C(=O)N2C[C@@H]3[C@H](C2)[C@H]3C2=NOC(C)(C)C2)c1	95%

// query I have this compound here, CC1(C)CC([C@H]2[C@@H]3CN(C(=O)c4cn(C5(C)CC5)cn4)C[C@@H]32)=NO1 , and I need its recorded Metabolic stability in human liver microsomes (% remaining at 60 min).
// result 103%

// query Same read-out for CC(C)c1cc(C(=O)N2C[C@@H]3[C@H](C2)[C@H]3C2=NOC(C)(C)C2)n[nH]1 ?
// result 95%

----------
# ASSAY REMARKS: Brain Concentration in Mice
# Format: in vivo
# TEST PARAMETERS: mouse, brain; mice (C57BL/6), oral, 2 h; comparative compound, dose not restated in the sentence; read-out: Unbound-Brain Concentration at 2 h
METRIC NAME: concentration at 2 h (ng/g)
The reply should contain only the number, in ng/g.

// query I have this molecule here, CC(C)c1cc(C(=O)N2CC[C@@H](NC(=O)C3CC3)C2)[nH]n1 [comparative compound, reference compound] , and I need its recorded concentration at 2 h.
// result 2.5

----------
// reported pIC50 per item
# ASSAYED TARGET: UniProt P29375
Hey, just a heads up that pIC50 is the negative log base 10 of the concentration in molar.

C[C@@H](c1nccs1)n1cnc(C(=O)N2C[C@@H]3[C@H](C2)[C@H]3C2=NOC(C)(C)C2)c1 [Example 27]	6.00
CC(C)c1cc(C(=O)N2C[C@@H]3[C@H](C2)[C@H]3c2nncn2-c2ccccc2)n[nH]1 [Example 121]	7.40
CC(C)n1cnc(C(=O)N2C[C@@H]3C(C4=NOC(C)(C(F)F)C4)[C@@H]3C2)c1 (stereo partly shown) [Example 40]	6.70
C[C@]1(C2=NOC3(CC3)C2)[C@@H]2CN(C(=O)c3cc(C4CC4)[nH]n3)C[C@@H]21 [Example 144]	7.70
CC(n1cnc(C(=O)N2C[C@@H]3C(C4=NOC(C)(C)C4)[C@@H]3C2)c1)C(F)(F)F (stereo partly shown) [Example 9]	6.40

// query Request: pIC50, test system UniProt P29375, entry CC(C)NC(=O)[C@H]1[C@@H]2CN(C(=O)c3cc(C(C)C)[nH]n3)C[C@@H]21 [Example 136]
// result 7.30

// query Same read-out for Cc1nnc([C@H]2[C@@H]3CN(C(=O)c4cc(C(C)C)[nH]n4)C[C@@H]32)n1C1CCC1 [Example 124] ?
// result 7.40

----------
# ASSAY REMARKS: Metabolic Stability in Human Liver Microsomes
# Type: in vitro ADME
# TEST PARAMETERS: 0.5 mg/mL liver microsomes, 1.0 μM test compound, 1.0 mM NADPH, 37° C., 60 min
// reported Metabolic stability in human liver microsomes (% remaining at 60 min) per item
The reply should contain only the number, in %.

C[C@]1(C2=NOC3(CC3)C2)[C@@H]2CN(C(=O)c3cc(C4CC4)[nH]n3)C[C@@H]21	101

Okay, now this compound:
// query I have this compound here, CC(C)n1cnc(C(=O)N2C[C@@H]3[C@H](C2)[C@@]3(C)C(=O)NC(C)(C)C)c1 , and I need its recorded Metabolic stability in human liver microsomes (% remaining at 60 min).
// result 99

----------
# ASSAY REMARKS: Brain Concentration in Mice
# Type: in vivo
# TEST PARAMETERS: mouse, brain; mice (C57BL/6), oral, 2 h; values with * obtained by proportional calculation from the 3 mg/kg data; read-out: Unbound-Brain Concentration at 2 h at 1 mg/kg
// reported concentration at 2 h per item
The reply should contain only the number, in ng/g.

CC(C)n1cnc(C(=O)N2C[C@@H]3[C@H](C2)[C@H]3C2=NOC(C)(C)C2)c1	93.7

// query I have this compound here, CC(C)c1cc(C(=O)N2C[C@@H]3[C@H](C2)[C@H]3C2=NOC(C)(C)C2)n[nH]1 , and I need its recorded concentration at 2 h.
// result 39.5

----------
# ASSAY REMARKS: Metabolic Stability in Human Liver Microsomes
# Assay type: in vitro ADME
# TEST PARAMETERS: human, microsomes, 1 h
# Experimental: Metabolic Stability in Human Liver Microsomes Human liver microsome (BD Gentest Corporation, Cat No. #452161) incubations were conducted in duplicate in 96-well plates. […] The remaining at 60 min (%) of test compound was calculated from the peak area ratio (test compound/internal standard) of samples collected 0 and 60 min after the start of the reaction according to the formula described below. […]
// reported Metabolic stability in human liver microsomes (% remaining at 60 min) per item
The reply should contain only the number, in %.

CC(C)n1cnc(C(=O)N2C[C@@H]3[C@H](C2)[C@H]3C(=O)C2CC2)c1 [Example 75]	102

// query I have this compound here, CC(n1cnc(C(=O)N2C[C@@H]3C(C4=NOC(C)(C)C4)[C@@H]3C2)c1)C(F)(F)F (stereo partly shown) [Example 9] , and I need its recorded Metabolic stability in human liver microsomes (% remaining at 60 min).
// result 93

// query Same read-out for Cc1nnc([C@H]2[C@@H]3CN(C(=O)c4cc(C(C)C)[nH]n4)C[C@@H]32)n1C1CCC1 [Example 124] ?
// result 97

// query Same read-out for CCN1C([C@H]2[C@@H]3CN(C(=O)c4cn(C(C)C)cn4)C[C@@H]32)=NOC1(C)C [Example 60] ?
// result 102

----------
# ASSAY REMARKS: Metabolic Stability in Human Liver Microsomes
# Type: in vitro ADME
# TEST PARAMETERS: human, microsomes, 1 h
// reported Metabolic stability in human liver microsomes (% remaining at 60 min) per item
The reply should contain only the number, in %.

Some molecules with recorded Metabolic stability in human liver microsomes (% remaining at 60 min):
CC(C)c1cc(C(=O)N2C[C@@H]3[C@H](C2)[C@@]3(C)C(=O)NC(C)(C)C)n[nH]1	99
CC(C)c1cc(C(=O)N2C[C@@H]3[C@H](C2)[C@H]3C2=NO[C@H]3C[C@@H]23)n[nH]1	83
Cc1nnc([C@H]2[C@@H]3CN(C(=O)c4cc(C(C)C)[nH]n4)C[C@@H]32)o1	102
CC(C)n1cnc(C(=O)N2C[C@@H]3[C@H](C2)[C@H]3c2nnn3ccccc23)c1	83

Okay, now this molecule:
// query I have this molecule here, CC(C)n1cnc(C(=O)N2C[C@@H]3[C@H](C2)[C@H]3C2=NOC(C)(C)N2C)c1 , and I need its recorded Metabolic stability in human liver microsomes (% remaining at 60 min).
// result 100

----------
// reported Metabolic stability in human liver microsomes (% remaining at 60 min) per item
# ASSAY REMARKS: Metabolic Stability in Human Liver Microsomes
# Type: in vitro ADME
# TEST PARAMETERS: 0.5 mg/mL liver microsomes, 1.0 μM test compound, 1.0 mM NADPH, 37° C., 60 min
The reply should contain only the number, in %.

CC(C)n1cnc(C(=O)N2C[C@@H]3[C@H](C2)[C@@]3(C)C2=NOC3(CC3)C2)c1	92

// query I have this compound here, O=C(c1cn(C2CC2)cn1)N1C[C@@H]2[C@H](C1)[C@H]2C1=NOC2(CC2)C1 , and I need its recorded Metabolic stability in human liver microsomes (% remaining at 60 min).
// result 95

// query Same read-out for CC(C)n1cnc(C(=O)N2C[C@@H]3[C@H](C2)[C@H]3C(=O)NC(C)(C)C)c1 ?
// result 93

// query Same read-out for C[C@]1(C2=NOC3(CC3)C2)[C@@H]2CN(C(=O)c3cn(C4CC4)cn3)C[C@@H]21 ?
// result 98
